Assay: Cytotoxicity against human HEK cells after 24 hrs by MTT assay
Format: cell-based
Conditions: HEK293, 24 h
Give measured IC50 for each item. Keep answers brief.

# input Query: IC50; subject: Clc1ccc(-c2nc3sc4ccccc4n3c2CN2CCCC2)cc1
# output 21.2 µM

# input Query: IC50; subject: c1ccc(-c2nc3sc4ccccc4n3c2CN2CCCC2)cc1
# output 18.5 µM

# input Query: IC50; subject: Cc1ccc2c(c1)sc1nc(-c3ccccc3)c(CN3CCOCC3)n12
# output 19 µM

* * *

Tested on: HepG2
Test: Induction of cell cycle arrest in human HepG2 assessed as accumulation at S-phase at 4 uM after 24 hrs by propidium iodide staining based FACS analysis
Type: functional
RECORDED ENDPOINT: Activity (%)
Quick reminder: number only, in %, skip the unit.

# input Query: Activity; subject: CCOc1ccc2c(c1)sc1nc(-c3ccccc3)c(CN3CCN(c4ccccn4)CC3)n12
# output 13.42

# input Query: Activity; subject: c1ccc(-c2nc3sc4ccccc4n3c2CN2CCCC2)cc1
# output 10.52

# input Query: Activity; subject: Cc1ccc2c(c1)sc1nc(-c3ccccc3)c(CN3CCOCC3)n12
# output 8.2

# input Query: Activity; subject: Cc1ccc2c(c1)sc1nc(-c3ccccc3)c(CN3CCCC3)n12
# output 7.13

# input Query: Activity; subject: CCOc1ccc2c(c1)sc1nc(-c3ccccc3)c(CN3CCOCC3)n12
# output 5.99

# input Query: Activity; subject: CCOc1ccc2c(c1)sc1nc(-c3ccccc3)c(CN3CCCC3)n12
# output 12.64

# input Query: Activity; subject: CCN(CC)CCOc1cccc(-c2cn3c(n2)sc2ccccc23)c1.Cl.Cl
# output 13.37

# input Query: Activity; subject: Clc1ccc(-c2nc3sc4ccccc4n3c2CN2CCCC2)cc1
# output 4.58

* * *

System: HeLa
Experiment: Cytotoxicity against human HeLa cells after 24 hrs by MTT assay
Assay type: functional, cell-based
RECORDED ENDPOINT: IC50
Field: value (include unit after the number)

# input Query: IC50; subject: c1ccc(-c2nc3sc4ccccc4n3c2CN2CCCC2)cc1
# output 4.65 µM

# input Query: IC50; subject: Cc1ccc2c(c1)sc1nc(-c3ccccc3)c(CN3CCCC3)n12
# output 8.09 µM

# input Query: IC50; subject: Cc1ccc2c(c1)sc1nc(-c3ccccc3)c(CN3CCOCC3)n12
# output 7.59 µM

# input Query: IC50; subject: CCOc1ccc2c(c1)sc1nc(-c3ccccc3)c(CN3CCOCC3)n12
# output 5.89 µM

# input Query: IC50; subject: CCOc1ccc2c(c1)sc1nc(-c3ccccc3)c(CN3CCN(c4ccccn4)CC3)n12
# output 4.36 µM

# input Query: IC50; subject: Clc1ccc(-c2nc3sc4ccccc4n3c2CN2CCCC2)cc1
# output 4.33 µM

# input Query: IC50; subject: CCOc1ccc2c(c1)sc1nc(-c3ccccc3)c(CN3CCCC3)n12
# output 4.3 µM

# input Query: IC50; subject: CCN(CC)CCOc1cccc(-c2cn3c(n2)sc2ccccc23)c1.Cl.Cl
# output 4.3 µM

* * *

Give measured IC50 for each item. Keep answers brief.
Experiment: Cytotoxicity against human HEK cells after 24 hrs by MTT assay
Format: cell-based
Conditions: HEK293, 24 h
Quick reminder: number only, in µM, skip the unit.

# input Query: IC50; subject: CCOc1ccc2c(c1)sc1nc(-c3ccccc3)c(CN3CCOCC3)n12
# output 21

# input Query: IC50; subject: CCOc1ccc2c(c1)sc1nc(-c3ccccc3)c(CN3CCCC3)n12
# output 18.8

# input Query: IC50; subject: CCN(CC)CCOc1cccc(-c2cn3c(n2)sc2ccccc23)c1.Cl.Cl
# output 17.5

# input Query: IC50; subject: Cc1ccc2c(c1)sc1nc(-c3ccccc3)c(CN3CCCC3)n12
# output 17.5

# input Query: IC50; subject: CCOc1ccc2c(c1)sc1nc(-c3ccccc3)c(CN3CCN(c4ccccn4)CC3)n12
# output 16

* * *

Give measured IC50 for each item. Keep answers brief.
Test system: MCF7
Assay: Cytotoxicity against human MCF7 cells after 24 hrs by MTT assay
Type: functional, cell-based
Conditions: MCF7, 24 h
Quick reminder: number only, in µM, skip the unit.

# input Query: IC50; subject: CCOc1ccc2c(c1)sc1nc(-c3ccccc3)c(CN3CCCC3)n12
# output 3.76

# input Query: IC50; subject: Cc1ccc2c(c1)sc1nc(-c3ccccc3)c(CN3CCCC3)n12
# output 3.8

# input Query: IC50; subject: Cc1ccc2c(c1)sc1nc(-c3ccccc3)c(CN3CCOCC3)n12
# output 3.8

# input Query: IC50; subject: Clc1ccc(-c2nc3sc4ccccc4n3c2CN2CCCC2)cc1
# output 4.07

# input Query: IC50; subject: c1ccc(-c2nc3sc4ccccc4n3c2CN2CCCC2)cc1
# output 3.87

# input Query: IC50; subject: CCOc1ccc2c(c1)sc1nc(-c3ccccc3)c(CN3CCN(c4ccccn4)CC3)n12
# output 4.45

# input Query: IC50; subject: CCOc1ccc2c(c1)sc1nc(-c3ccccc3)c(CN3CCOCC3)n12
# output 4.2

# input Query: IC50; subject: CCN(CC)CCOc1cccc(-c2cn3c(n2)sc2ccccc23)c1.Cl.Cl
# output 3.59
